Organism: Homo sapiens
TEST DESCRIPTION: Bronchorelaxing effect in leukotriene D4-contracted human lung small airways model assessed as remaining contraction at 10 uM relative to control
Assay type: functional
I'd appreciate it if you could supply Activity values for the items below.
Numbers only, in %.

Worked cases, answers included:
COMPOUND: Oc1cc2c(cc1O)CN(C(=S)NCCCc1ccccc1)CCC2
MEASUREMENT TYPE: Activity
QUANTITATIVE READOUT: 84

COMPOUND: Oc1cc2c(cc1O)CN(C(=S)NCCc1ccc(F)cc1)CCC2
MEASUREMENT TYPE: Activity
QUANTITATIVE READOUT: 68

COMPOUND: O=C(NCCc1ccc(Cl)cc1)N1CCc2c(Cl)c(O)c(O)c(Cl)c2C1
MEASUREMENT TYPE: Activity
QUANTITATIVE READOUT: 16

Batch request: Activity for each of the following compounds.
1. Oc1c(O)c(Cl)c2c(c1Cl)CCN(C(=S)NCCc1ccccc1Cl)C2
2. Oc1c(O)c(Cl)c2c(c1Cl)CCN(C(=S)NCCc1cccnc1)C2
3. Oc1c(O)c(Cl)c2c(c1Cl)CCN(C(=S)NCCc1ccc(Br)cc1)C2
4. CCCCCCCCNC(=S)N1CCc2c(Cl)c(O)c(O)c(Cl)c2C1
5. O=C(NCCc1ccc(Cl)cc1)C1CCc2cc(O)ccc2C1 (stereo not given)
6. Oc1c(O)c(Cl)c2c(c1Cl)CCN(C(=S)NCCc1ccc(F)cc1)C2

1. 10
2. 30
3. 17
4. 69
5. 78
6. 6

Need Activity, item Oc1cc2c(cc1O)CN(C(=S)NCc1ccc(Cl)cc1)CCC2
70

====

Species: Homo sapiens
TEST DESCRIPTION: Bronchorelaxing effect in leukotriene D4-contracted human lung small airways model assessed as remaining contraction at 10 uM relative to control
Assay type: functional
Assignment: determine reported Activity for the given compounds.
Numbers only, in %.

Return reported Activity values for all items listed beneath this line.
1. O=C(NCCc1ccc(Cl)cc1)N1CCCc2cc(O)c(O)cc2C1
2. O=C(CCCc1ccc(Cl)cc1)N1CCc2c(Cl)c(O)c(O)c(Cl)c2C1
3. Oc1c(O)c(Cl)c2c(c1Cl)CCN(C(=S)NCCc1cccc(Cl)c1)C2
4. O=C(CCCc1ccc(Cl)cc1)N1CCc2cc(O)c(O)cc2C1
5. O=C(NCCc1ccc(Cl)cc1)c1ccc2cc(O)ccc2c1
6. O=C(CCCc1ccc(Cl)cc1)N1CCCc2cc(O)c(O)cc2C1
7. Oc1c(O)c(Cl)c2c(c1Cl)CCN(C(=S)NCc1ccc(Cl)cc1)C2
8. Oc1cc2c(cc1O)CN(C(=S)NCCc1ccc(Br)cc1)CCC2

73
16
27
47
90
54
19
67

Dear colleague, could you send me Activity for each of the items below? Thanks.
1. O=C(NCCc1ccc(Cl)cc1)N1CCc2cc(O)c(O)cc2C1
2. Oc1c(O)c(Cl)c2c(c1Cl)CCN(C(=S)NCCc1ccccn1)C2
3. Oc1c(O)c(Cl)c2c(c1Cl)CCN(C(=S)NCCc1ccncc1)C2
4. Oc1cc2c(cc1O)CN(C(=S)NCCc1cccc(Cl)c1)CCC2
5. Oc1c(O)c(Cl)c2c(c1Cl)CCN(C(=S)NCCc1ccc(Cl)cc1)C2
6. CCCCCCCCNC(=S)N1CCCc2cc(O)c(O)cc2C1
7. Oc1cc2c(cc1O)CN(C(=S)NCCc1ccccc1Cl)CCC2

1. 69
2. 26
3. 33
4. 76
5. 14
6. 69
7. 56

All figures here come from ChEMBL document CHEMBL1142273.
